These data points were gathered from patent CN116693678A.

Biological target: 肺炎支原体天然抗原(购自Microbix) (Mycoplasma pneumoniae)
Experiment: indirect ELISA on coated antigen (2 ug/ml), antibody 1.37 ng/ml
Would you kindly list OD值 (450nm, 参考630nm) for each of these binders?
Give the number first and the unit second.

Inquiry: Look up and report measured OD值 (450nm, 参考630nm) for this entry: Anti-MP-11F5mut1 (antibody, mouse IgG1, kappa, V domains shown) VH: QVQLQQSGPELVKPGALVKISCKASGYTFTSFDINWVKQRPGQGLEWIGYIYPGDGSTKYNEKFKGKATLTADKSSSTAYMQFSSLTSENSAVYFCTRKGGWGAGHSAMDYWGQGTSVTVSS VL: DIQMTQTTSSLSASLGDRVTISCRASQAIGNYLNWYQQRPDGTVKLLIYYTSRKNSGAPSRFSGSGSGTDYSITISNLDQEDIATYFCQQGYTTPYTFGGGTKLEIKR
Reply text: 0.295 OD

Inquiry: Look up and report measured OD值 (450nm, 参考630nm) for this entry: Anti-MP-11F5mut7 (antibody, mouse IgG1, kappa, V domains shown) VH: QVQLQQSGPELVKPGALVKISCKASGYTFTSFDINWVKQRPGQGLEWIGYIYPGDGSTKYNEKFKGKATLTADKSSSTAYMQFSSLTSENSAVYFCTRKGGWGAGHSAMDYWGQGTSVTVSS VL: DIQMTQTTSSLSASLGDRVTISCRASQAISNYINWYQQRPDGTVKLLIYYTSRKNSGAPSRFSGSGSGTDYSLTISNIDQEDIATYFCQQGYTTPYTFGGGTKLEIKR
Reply text: 0.643 OD

Inquiry: Look up and report measured OD值 (450nm, 参考630nm) for this entry: Anti-MP-11F5mut5 (antibody, mouse IgG1, kappa, V domains shown) VH: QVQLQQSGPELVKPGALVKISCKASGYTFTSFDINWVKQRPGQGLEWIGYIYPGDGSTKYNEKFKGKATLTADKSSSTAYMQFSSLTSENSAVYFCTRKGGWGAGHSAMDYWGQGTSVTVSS VL: DIQMTQTTSSLSASLGDRVTISCRASQAISNYLNWYQQRPDGTVKLLIYYTSRKNSGAPSRFSGSGSGTDYSLTISNIDQEDIATYFCQQGYTTPYTFGGGTKLEIKR
Reply text: 0.316 OD
